Source of measurements: patent US20250042905A1

Below, each entry is listed alongside its reported inhibition at 1 µM.
ASSAY TARGET: PD brain-derived alpha-synuclein aggregates (Homo sapiens)
Construct: PD brain-derived alpha-synuclein aggregates were spotted onto microarray slides; from tissue; host or cells: human Parkinson's disease patient brain
ASSAY COMMENT: Micro-radiobinding competition assay for the determination of binding affinity
RUN CONDITIONS: read-out: Competition at 1 μM (%)
Procedure: Micro-Radiobinding Competition Assay for the Determination of Binding Affinity PD brain-derived alpha-synuclein aggregates were spotted onto microarray slides. […] In some cases, the non-radiolabelled example compounds were further assessed for a range of different concentrations, varying from 0.05 nM to 2 μM. […] Quantification of the signal was performed by using the Beamage image analysis software (ai4R). […]
Numeric answer only, unit % assumed.

Answered examples (3):
compound="COc1cncc(N2Cc3nn(-c4cnc(N5CC(F)C5)cn4)cc3C2=O)c1 [Example 11]" recorded_measurement=69
compound="COc1cncc(N2Cc3nn(-c4cnc(N5CC[C@@H](F)C5)cn4)cc3C2=O)c1 [Example 7]" recorded_measurement=69
compound="O=C1c2cn(-c3cnc(N4CC[C@H](F)C4)cn3)nc2CN1c1cccnc1 [Example 2]" recorded_measurement=98

(Q) What inhibition at 1 µM value was documented for this compound, COc1cncc(N2Cc3nn(-c4cnc(N5CC[C@H](F)C5)cn4)cc3C2=O)c1 [Example 10] ?
(A) 82
